target.under.test: human arginase II (Homo sapiens, UniProt P78540)
Sequence (P78540 23-354): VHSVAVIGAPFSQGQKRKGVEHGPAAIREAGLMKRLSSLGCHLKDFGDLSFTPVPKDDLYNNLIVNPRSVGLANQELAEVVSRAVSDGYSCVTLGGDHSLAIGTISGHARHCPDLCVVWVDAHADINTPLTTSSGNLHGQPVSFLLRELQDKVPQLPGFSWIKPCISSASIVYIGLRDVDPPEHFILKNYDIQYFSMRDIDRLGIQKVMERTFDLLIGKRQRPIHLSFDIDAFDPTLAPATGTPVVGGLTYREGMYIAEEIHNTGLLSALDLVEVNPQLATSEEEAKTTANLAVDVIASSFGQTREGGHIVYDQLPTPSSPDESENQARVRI
method: Arginase inhibition, QuantiChrom colorimetric urea assay, IC50 converted to Ki
Format: biochemical
condition.label: Table 3; pH 9.5; read-out: human Arginase II pH 9.5, Ki assigned value
recorded.endpoint: Ki

Example cases with answers are listed next.
> print(dat)
                                   compound                         target.under.test  recorded.endpoint        result
1  NC(CCCCB(O)O)(CCCN1CCC1)C(=O)O (stereo not drawn)  human arginase II (Homo sapiens, UniProt P78540)                 Ki  51 to 100 nM
2  NC(CCCCB(O)O)(CCCN1CCC(O)(c2ccc(Cl)cc2)CC1)C(=O)O (stereo not drawn)  human arginase II (Homo sapiens, UniProt P78540)                 Ki   11 to 50 nM
3  COc1ccc(C2CCN(CCCC(N)(CCCCB(O)O)C(=O)O)CC2)cc1 (stereo not drawn)  human arginase II (Homo sapiens, UniProt P78540)                 Ki   11 to 50 nM
4  NC(CCCCB(O)O)(CCCN1CCN(C(=O)c2ccc(Cl)c(Cl)c2)CC1)C(=O)O (stereo not drawn)  human arginase II (Homo sapiens, UniProt P78540)                 Ki  51 to 100 nM

Which Ki reading was recorded for the compound NC(CCCCB(O)O)(CCCN1CCCC1c1ccccc1C(F)(F)F)C(=O)O (stereo not drawn) ?
101 to 250 nM

Which Ki reading was recorded for the compound NC(CCCCB(O)O)(CCCN1CCC(NC(=O)Nc2ccc(Cl)c(Cl)c2)C1)C(=O)O (stereo not drawn) ?
11 to 50 nM

Which Ki reading was recorded for the compound COCCN(C)CCCC(N)(CCCCB(O)O)C(=O)O (stereo not drawn) ?
101 to 250 nM

Which Ki reading was recorded for the compound NC(CCCCB(O)O)(CCCN1CCC(Nc2ccccc2)CC1)C(=O)O (stereo not drawn) ?
11 to 50 nM

Which Ki reading was recorded for the compound NC(CCCCB(O)O)(CCCN1CCC(C(=O)c2ccc(F)cc2)CC1)C(=O)O (stereo not drawn) ?
11 to 50 nM

* * *

Readings of pKi for the listed molecules
target.under.test: human arginase I (Homo sapiens)
Sequence (P05089 whole entry): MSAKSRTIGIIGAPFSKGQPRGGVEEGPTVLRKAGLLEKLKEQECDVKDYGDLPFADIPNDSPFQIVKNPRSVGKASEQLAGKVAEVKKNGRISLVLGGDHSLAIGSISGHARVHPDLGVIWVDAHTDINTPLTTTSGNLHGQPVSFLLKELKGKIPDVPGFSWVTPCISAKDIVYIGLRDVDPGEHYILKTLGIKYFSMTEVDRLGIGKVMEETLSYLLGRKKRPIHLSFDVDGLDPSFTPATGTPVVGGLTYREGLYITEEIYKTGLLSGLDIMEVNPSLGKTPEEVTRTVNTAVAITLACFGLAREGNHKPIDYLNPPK
method: Arginase inhibition, QuantiChrom colorimetric urea assay, IC50 converted to Ki
Format: biochemical
condition.label: Table 3; pH 9.5; read-out: human Arginase I pH 9.5, Ki assigned value
pKi: −log10 of the molar value.

Example cases with answers are listed next.
> print(dat)
                                   molecule  recorded.endpoint        result
1  COCCN(C)CCCC(N)(CCCCB(O)O)C(=O)O (stereo not shown)                pKi  7.30 to 7.96
2  CS(=O)(=O)c1ccc(CN2CCN(CCCC(N)(CCCCB(O)O)C(=O)O)CC2)cc1 (stereo not shown)                pKi  7.30 to 7.96
3  NC(CCCCB(O)O)(CCCN1CCN(Cc2cccc(C(F)(F)F)c2)CC1)C(=O)O (stereo not shown)                pKi  7.00 to 7.29
4  NC(CCCCB(O)O)(CCCN1CCN(CCc2ccccc2)CC1)C(=O)O (stereo not shown)                pKi  7.30 to 7.96

Which pKi reading was recorded for the molecule NC(CCCCB(O)O)(CCC1CCCCN1Cc1ccc(F)c(F)c1)C(=O)O (stereo not shown) ?
7.30 to 7.96

Which pKi reading was recorded for the molecule NC(CCCCB(O)O)(CCCN1CCN(C(=O)c2ccc(Cl)c(Cl)c2)CC1)C(=O)O (stereo not shown) ?
7.00 to 7.29

Which pKi reading was recorded for the molecule NC(CCCCB(O)O)(CCCN1CCSCC1)C(=O)O (stereo not shown) ?
7.00 to 7.29

Which pKi reading was recorded for the molecule NC(CCCCB(O)O)(CCCN1CCC(NC(=O)c2ccccc2)CC1)C(=O)O (stereo not shown) ?
7.30 to 7.96

Which pKi reading was recorded for the molecule NC(CCCCB(O)O)(CCCN1CCC(C(=O)c2ccc(F)cc2)CC1)C(=O)O (stereo not shown) ?
7.30 to 7.96

Origin of measurements: patent US9447122B2
